# maps each entry to its pKd
- target_desc: T1, PUF4 RNA-binding domain (Saccharomyces cerevisiae, UniProt P25339 537-888)
- T1 sequence: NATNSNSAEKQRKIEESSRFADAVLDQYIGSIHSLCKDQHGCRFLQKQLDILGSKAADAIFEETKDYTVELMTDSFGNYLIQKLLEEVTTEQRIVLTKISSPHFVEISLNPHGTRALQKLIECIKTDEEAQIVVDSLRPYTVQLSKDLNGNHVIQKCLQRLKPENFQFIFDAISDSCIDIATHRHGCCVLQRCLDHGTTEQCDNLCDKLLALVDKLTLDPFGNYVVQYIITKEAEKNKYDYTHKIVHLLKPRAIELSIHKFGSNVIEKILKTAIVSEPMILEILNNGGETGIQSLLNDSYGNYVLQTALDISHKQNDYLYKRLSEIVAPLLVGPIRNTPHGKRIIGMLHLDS
- test_protocol: Mg; RNA-MaP; 20 mM Na-HEPES pH 7.4, 30 mM KOAc, 0.75 mM MgCl2, 0.1% Tween-20, 5% glycerol, 0.1 mg/mL BSA, 2 mM DTT; 25 C; 0.0125-409.6 nM protein
- measurement_setup: tags: N-His6-TEV cleaved; C-SNAP kept, Cy3B-labelled; label: tethered on chip by stalled RNA polymerase
pKd: −log10 of the molar value.

{"columns": ["binder", "result_qualifier", "pKd"],
 "data": [
  ["Ic_S4_P4E.1_K4.1_C4.1_H4.1_A4.1_[T5C]_[A6G]_F4.1_[T8G]_[A9T]_T4.1 (ssRNA) RNA: UUUGACAACUGAUCGUUCUUUCUUGUACGUGUUUCUUUCUCGAUCAGUUGUCUUU", "=", 7.47],
  ["UCUCUUUGUAAUAUGAUCUCUU (ssRNA) [Ib_S1_P5E.1_K5.1_C5.1_H5.1_A5.1_[T5A]_F5.1_[T9G]_T5.1]", "=", 7.65],
  ["Id_ii_S4_P3E.3_K3.2_C3.2_[T-1C]_H3.2_A3.1_F3.1_T3.2_[A10T] (ssRNA) RNA: UUUGACAACUGAUCGUUCUUUCUCCUAUAUAUAUUUUCUUUCUCGAUCAGUUGUCUUU", "=", 7.43],
  ["UCUCUUUUUAUCUAUCUCUU (ssRNA) [Ib_S1_P3E.1_K3.1_C3.1_H3.1_[G2T]_A3.1_[A6C]_F3.1_T3.1]", "<", 5.64],
  ["Id_ii_S2_P4E.4_K4.3_C4.2_[C-2A]_H4.3_A4.1_F4.1_T4.2_[G10A]_[T11C] (ssRNA) RNA: UUUGAUUAAUAUGAUAUCGUUCUUUCUAUACACUAUUAACUUCUUUCUCGAUAUCAUAUUAAUCUUU", "=", 8.02],
  ["ACAAACUGCAUAUUCACAAAC (ssRNA) [Ib_S3_P4E.1_K4.1_C4.1_H4.1_[T3C]_A4.1_F4.1_[A9C]_T4.1]", "<", 5.64],
  ["Ic_S4_P4E.1_K4.1_C4.1_H4.1_A4.1_[A6C]_F4.1_[A9G]_T4.1 (ssRNA) RNA: UUUGACAACUGAUCGUUCUUUCUUGUAUCUUGUUCUUUCUCGAUCAGUUGUCUUU", "=", 7.95],
  ["UCUCUUUUUAUAUAUAUCUCUCUU (ssRNA) [Id_ii_S1_P3E.3_K3.2_C3.2_[C-2T]_H3.2_A3.1_F3.1_T3.2_[A10C]]", "=", 6.12],
  ["UCUCUUUGUAAAGCUCUCUCUU (ssRNA) [Ic_S1_P5E.1_K5.1_C5.1_H5.1_A5.1_[T5A]_[T6A]_[A7G]_F5.1_[T8C]_[A10C]_T5.1]", "=", 5.90],
  ["Ib_S2_P5E.1_K5.1_C5.1_H5.1_A5.1_F5.1_[T8C]_[A10T]_T5.1 (ssRNA) RNA: UUUGAUUAAUAUGAUAUCGUUCUUUCUUGUAUUACUUUUCUUUCUCGAUAUCAUAUUAAUCUUU", "=", 7.19],
  ["Id_ii_S2_P3E.3_K3.2_C3.2_[C-2A]_H3.2_A3.1_F3.1_T3.2_[T9A]_[A10T] (ssRNA) RNA: UUUGAUUAAUAUGAUAUCGUUCUUUCUAUUAUAUAUAAUUUCUUUCUCGAUAUCAUAUUAAUCUUU", "=", 6.27],
  ["Ic_S4_P5E.1_K5.1_C5.1_H5.1_A5.1_[T6A]_F5.1_[T9G]_[A10G]_T5.1 (ssRNA) RNA: UUUGACAACUGAUCGUUCUUUCUUGUAUAAUGGUUCUUUCUCGAUCAGUUGUCUUU", "=", 7.78],
  ["Id_ii_S2_P3E.4_K3.3_C3.2_[T-1A]_H3.3_A3.1_F3.1_T3.2_[T9G]_[A10C] (ssRNA) RNA: UUUGAUUAAUAUGAUAUCGUUCUUUCUCAACACUAUAGCUUCUUUCUCGAUAUCAUAUUAAUCUUU", "<", 5.64],
  ["Id_ii_S4_P3E.4_K3.3_C3.2_[C-2T]_[T-1A]_H3.3_A3.1_F3.1_T3.2 (ssRNA) RNA: UUUGACAACUGAUCGUUCUUUCUUAACACUAUAUAUUCUUUCUCGAUCAGUUGUCUUU", "=", 6.58],
  ["Ic_S4_P4E.1_K4.1_C4.1_H4.1_A4.1_[T5A]_[T7C]_F4.1_[T8A]_[A9T]_T4.1 (ssRNA) RNA: UUUGACAACUGAUCGUUCUUUCUUGUAAACAUUUCUUUCUCGAUCAGUUGUCUUU", "=", 6.68],
  ["Id_ii_S2_P5E.4_K5.3_C5.2_[C-2A]_H5.3_A5.1_F5.1_T5.2_[A12T] (ssRNA) RNA: UUUGAUUAAUAUGAUAUCGUUCUUUCUAUACACUUAUUAUUUUCUUUCUCGAUAUCAUAUUAAUCUUU", "=", 7.01],
  ["Ic_S2_P3E.1_K3.1_C3.1_H3.1_A3.1_[T5C]_[A6C]_F3.1_[T7C]_[A8T]_T3.1 (ssRNA) RNA: UUUGAUUAAUAUGAUAUCGUUCUUUCUUGUACCCUUUCUUUCUCGAUAUCAUAUUAAUCUUU", "=", 7.90],
  ["Ic_S4_P4E.1_K4.1_C4.1_H4.1_A4.1_[T5C]_[A6C]_[T7A]_F4.1_[A9C]_T4.1 (ssRNA) RNA: UUUGACAACUGAUCGUUCUUUCUUGUACCAUCUUCUUUCUCGAUCAGUUGUCUUU", "=", 7.82],
  ["Id_i_S2_P3E.7_K3.3_C3.3_[T-3A]_[C-2G]_[T-1C]_H3.3_A3.1_F3.1_T3.2 (ssRNA) RNA: UUUGAUUAAUAUGAUAUCGUUCUUUCUAGCACACUAUAUAUUCUUUCUCGAUAUCAUAUUAAUCUUU", "=", 6.37],
  ["Id_ii_S2_P5E.2_K5.1_C5.2_[T-1A]_H5.1_A5.1_F5.1_T5.2_[T11A]_[A12C] (ssRNA) RNA: UUUGAUUAAUAUGAUAUCGUUCUUUCUCAUGUAUUAUUAACUUCUUUCUCGAUAUCAUAUUAAUCUUU", "=", 8.34],
  ["Ic_S4_P5E.1_K5.1_C5.1_H5.1_A5.1_[T5A]_[T6C]_[A7T]_F5.1_[T8G]_[T9C]_[A10T]_T5.1 (ssRNA) RNA: UUUGACAACUGAUCGUUCUUUCUUGUAACUGCUUUCUUUCUCGAUCAGUUGUCUUU", "=", 6.52],
  ["UCUCUUUGUACUGUAUCUCUU (ssRNA) [Ic_S1_P4E.1_K4.1_C4.1_H4.1_A4.1_[T5C]_[A6T]_[T7G]_F4.1_T4.1]", "=", 8.23],
  ["UCUCUUUGUACAAUGUCUCUU (ssRNA) [Ic_S1_P4E.1_K4.1_C4.1_H4.1_A4.1_[T5C]_[T7A]_F4.1_[A9G]_T4.1]", "=", 8.10]
]}
